- subject of test: AM2 receptor (CALCRL+RAMP3) (Homo sapiens, UniProt O60896+Q16602)
- Construct: host or cells: 1321N1
- Sequence (Q16602 23-461): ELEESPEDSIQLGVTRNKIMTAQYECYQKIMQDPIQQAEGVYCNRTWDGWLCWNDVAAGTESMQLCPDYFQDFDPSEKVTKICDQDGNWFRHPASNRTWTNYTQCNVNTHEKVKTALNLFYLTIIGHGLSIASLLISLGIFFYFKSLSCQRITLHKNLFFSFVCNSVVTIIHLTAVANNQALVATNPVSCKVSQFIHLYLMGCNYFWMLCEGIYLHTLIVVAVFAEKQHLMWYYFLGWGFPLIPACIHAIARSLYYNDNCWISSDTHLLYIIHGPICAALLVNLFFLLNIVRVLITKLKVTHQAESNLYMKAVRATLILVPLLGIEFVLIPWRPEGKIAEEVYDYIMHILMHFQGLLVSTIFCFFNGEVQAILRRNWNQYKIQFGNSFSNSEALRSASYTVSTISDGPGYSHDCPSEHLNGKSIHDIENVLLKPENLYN
- Sequence (O60896 24-148): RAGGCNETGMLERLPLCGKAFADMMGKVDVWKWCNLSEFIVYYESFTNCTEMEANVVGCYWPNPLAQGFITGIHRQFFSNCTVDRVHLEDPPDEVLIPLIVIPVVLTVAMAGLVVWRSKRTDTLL
- test details: AM2 receptor inhibition, LANCE TR-FRET cAMP agonist-antagonist competition assay
- Format: cell-based
- cond: inhibition of AM induced cAMP activation; 1321N1 cells transfected with CALCRL+RAMP3; read-out: AM2 pIC50 (converted)
experimental endpoint: IC50 (nM)
The response must be a number in nM with no trailing unit.

Any idea what IC50 was measured for CC(C)(C)C(=O)N(CC(=O)Nc1ccc2c(c1)CC1(C2)C(=O)Nc2ncccc21)Cc1ccccc1C(=N)NO (stereo not drawn) [Example 41] ? 100

For the compound CN(C)Cc1ccccc1CN(CC(=O)Nc1ccc2c(c1)CC1(C2)C(=O)Nc2ncccc21)C(=O)C(C)(C)C (stereo not drawn) [Example 30] , what IC50 is on record? 29.5

Dear colleague, I am looking for the recorded IC50 of the following compound: CNCc1cccc(F)c1CN(CC(=O)Nc1ccc2c(c1)CC1(C2)C(=O)Nc2ncccc21)C(=O)C(C)(C)C (stereo not drawn) [Example 56] 151

# query: IC50 of entry CC1(C(=O)N(CC(=O)Nc2ccc3c(c2)CC2(C3)C(=O)Nc3ncccc32)Cc2ccccc2CN2CCC2)CC1 (stereo not drawn) [Example 47] 15.5

Which measured IC50 value corresponds to COC(=O)N(CC(=O)Nc1ccc2c(c1)CC1(C2)C(=O)Nc2ncccc21)Cc1ccccc1CN1CCC1 (stereo not drawn) [Example 50] ? 74.1

Give the measured IC50 of CNCc1ccccc1CN(CC(=O)Nc1ccc2c(c1)C[C@@]1(C2)C(=O)Nc2ncccc21)C(=O)C(C)(C)CC(F)(F)F [Example 97, 2,2,2-trifluoroacetate] . 60.3

Query: IC50; subject: CNCc1ccccc1CN(CC(=O)Nc1ccc2c(c1)C[C@@]1(C2)C(=O)Nc2ncccc21)C(=O)C(C)(C)F [Example 95, 2,2,2-trifluoroacetate] 28.8

What value of IC50 has been recorded for this entry: CC(C)(C)C(=O)N(CC(=O)Nc1ccc2c(c1)CC1(C2)C(=O)Nc2ncccc21)Cc1ccccc1CNCC(F)F (stereo not drawn) [Example 3] 324

Please look up its IC50: CNCc1ccccc1CN(CC(=O)Nc1ccc2c(c1)C[C@@]1(C2)C(=O)Nc2ncccc21)C(=O)C12CC(NC(C)=O)(C1)C2 [Example 100, 2,2,2-trifluoroacetate] 309

Consider the compound CNCc1ccc(F)cc1CN(CC(=O)Nc1ccc2c(c1)CC1(C2)C(=O)Nc2ncccc21)C(=O)C(C)(C)C (stereo not drawn) [Example 54] and give its measured IC50. 3.55

Given the compound CCNCc1ccccc1CN(CC(=O)Nc1ccc2c(c1)CC1(C2)C(=O)Nc2ncccc21)C(=O)C(C)(C)C (stereo not drawn) [Example 27] , what is its reported IC50? 30.2

Give its IC50 value. Item: O=C(CN(Cc1ccccc1CN1CCC1)C(=O)C1CC1)Nc1ccc2c(c1)CC1(C2)C(=O)Nc2ncccc21 (stereo not drawn) [Example 49] 10.2

Reported IC50 for CNCc1ccccc1CN(CC(=O)Nc1ccc2c(c1)CC1(C2)C(=O)Nc2ncccc21)C(=O)N1CCC2(CCNCC2)CC1 (stereo not drawn) [Example 89] : what is it? 87.1

Dear colleague, I am looking for the recorded IC50 of the following compound: CNCc1ccccc1CN(CC(=O)Nc1ccc2c(c1)CC1(C2)C(=O)Nc2ncccc21)C(=O)C1CCCN1C(C)=O (stereo not drawn) [Example 69] 129

Would you mind telling me what IC50 value was observed for O=C(CN(Cc1ccccc1CN1CCC1)C(=O)C1CCCC1)Nc1ccc2c(c1)CC1(C2)C(=O)Nc2ncccc21 (stereo not drawn) [Example 46] ? 2.82

// query IC50 value for entry CNCc1ccccc1CN(CC(=O)Nc1ccc2c(c1)CC1(C2)C(=O)Nc2ncccc21)C(=O)C(C)(C)c1ccc(CN2CCNCC2)cc1 (stereo not drawn) [Example 91] 24

Give the measured IC50 of C=CCN(CC=C)CCc1ccccc1CN(CC(=O)Nc1ccc2c(c1)CC1(C2)C(=O)Nc2ncccc21)C(=O)C(C)(C)C (stereo not drawn) [Example 28] . 490

I'd like to know its IC50. The compound in question is CNCc1ccccc1CN(CC(=O)Nc1ccc2c(c1)CC1(C2)C(=O)Nc2ncccc21)C(=O)C(C)(C)OC (stereo not drawn) [Example 59] 9.33
